Give measured pest or weed control at 100 g/ha for each item. Keep answers brief.
- Tested on: caterpillars of the armyworm (Spodoptera frugiperda)
- TEST DETAILS: Spodoptera frugiperda test (SPODFR spray treatment)
- Type: in vivo
- CONDITION SET: 168 h, 100 g/ha, after 7 days, read-out: activity in %
Answers are plain numbers, in %.

Worked cases, answers included:
Cc1cc(I)cc(C(=O)NC(C)(C)C)c1NC(=O)c1cc(Cn2cc(C(F)(C(F)(F)F)C(F)(F)F)nn2)nn1-c1ncccc1Cl [Example 236] | 100
Cc1cc(C#N)cc(C(=O)NC(C)(C)C)c1NC(=O)c1cc(Cn2cc(-c3ccc(Cl)cc3Cl)nn2)nn1-c1ncccc1Cl [Example 55] | 100
Cc1cc(Cl)cc(C(=O)NC(C)C)c1NC(=O)c1cc(Cn2nc(C(F)(F)F)c(C(F)(F)F)n2)nn1-c1ncccc1Cl [Example 409] | 100
Cc1cc(I)cc(C(=O)NC2CC2)c1NC(=O)c1cc(Cn2nc(C(F)(F)F)c(C(F)(F)F)n2)nn1-c1ncccc1Cl [Example 390] | 100
Cc1cc(Cl)cc(C(=O)NC(C)C2CC2)c1NC(=O)c1cc(Cn2ncc(C(F)(C(F)(F)F)C(F)(F)F)n2)nn1-c1ncccc1Cl (stereo not drawn) [Example 258] | 100

Consider the record given below.
Look at this compound and give its reported pest or weed control at 100 g/ha. Cc1cc(I)cc(C(=O)NC(C)C2CC2)c1NC(=O)c1cc(Cn2cc(C(F)(C(F)(F)F)C(F)(F)F)nn2)nn1-c1ncccc1Cl (stereo not drawn) [Example 234]
100
